Observed pIC50 for Fyn (Homo sapiens, UniProt P06241), reported per entry below.
pIC50: −log10 of the molar value.

Some entries whose results are on file:
INSERT INTO results (compound, experimental_system, readout_label, measurement) VALUES
  ('COc1ccc(Nc2ncccc2-c2ncnc(Nc3cc(OC)c(OC)c(OC)c3)n2)c(C)c1', 'Fyn (Homo sapiens, UniProt P06241)', 'pIC50', '< 5.02'),
  ('COc1ccc(Nc2ncnc(Nc3ccc(C)c(O)c3)n2)cc1OC', 'Fyn (Homo sapiens, UniProt P06241)', 'pIC50', '> 5.95'),
  ('COc1cc(Nc2ncnc(N3CCCC4CCCCC43)n2)cc(OC)c1OC (centres unmarked)', 'Fyn (Homo sapiens, UniProt P06241)', 'pIC50', '5.22 to 6.00'),
  ('Cc1cccc(Nc2ncnc(Nc3ccc(O)cc3)n2)c1', 'Fyn (Homo sapiens, UniProt P06241)', 'pIC50', '> 5.87'),
  ('COc1cc(Nc2ncnc(-n3c(NCc4ccccn4)nc4ccccc43)n2)cc(OC)c1OCCn1ccnn1', 'Fyn (Homo sapiens, UniProt P06241)', 'pIC50', '< 5.10');

Give pIC50 for this entry on Fyn (Homo sapiens, UniProt P06241): NCc1ccc(Nc2ncnc(Nc3cc(-c4ccco4)n[nH]3)n2)cc1 5.16 to 5.94

Check Fyn (Homo sapiens, UniProt P06241) data and give pIC50 for COc1cc(Nc2ncnc(Nc3ccc(Cl)cc3F)n2)cc(OC)c1OC . 5.23 to 6.01

Look up and report measured pIC50 (Fyn (Homo sapiens, UniProt P06241)) for the following compound: COc1cc(Nc2ncnc(-n3c(NCc4ccc(C)cc4)nc4ccccc43)n2)cc(OC)c1OC < 5.04

---

- experimental system: AKT (Homo sapiens, UniProt Q9Y243)
- Construct: Kinases are expressed as either kinase domains or full length constructs; made in house
- Sequence (Q9Y243 whole entry, the tested form may be a part): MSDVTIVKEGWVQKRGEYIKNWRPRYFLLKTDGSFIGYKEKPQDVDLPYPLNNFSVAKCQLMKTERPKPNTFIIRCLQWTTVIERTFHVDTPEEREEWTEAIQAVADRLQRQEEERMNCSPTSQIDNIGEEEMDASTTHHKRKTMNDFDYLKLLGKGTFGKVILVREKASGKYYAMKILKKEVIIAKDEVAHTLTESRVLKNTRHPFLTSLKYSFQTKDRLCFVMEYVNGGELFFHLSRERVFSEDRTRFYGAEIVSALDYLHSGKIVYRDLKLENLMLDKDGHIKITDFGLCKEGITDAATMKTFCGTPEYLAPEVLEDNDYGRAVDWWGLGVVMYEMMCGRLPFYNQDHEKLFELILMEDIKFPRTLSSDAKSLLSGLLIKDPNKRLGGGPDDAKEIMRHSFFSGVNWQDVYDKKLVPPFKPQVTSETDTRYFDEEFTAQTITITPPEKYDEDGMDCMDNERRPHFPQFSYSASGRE
- assay remarks: Kinase inhibition assay (33P transfer), AKT
- Type: biochemical
- settings: Table 2, kinase inhibition class; read-out: AKT3-1
- From the text: The inhibitor compounds described herein are screened in the following manner. […] Kinases are expressed as either kinase domains or full length constructs fused to glutathione S-transferase (GST) or polyHistidine tagged fusion proteins in either E. colior Baculovirus-High Five expression systems. […]
Recorded IC50 values for a group of compounds are listed next.

INSERT INTO measurements (given_smiles, measurement) VALUES
  ('COc1cc(Nc2ncnc(-n3c(N[C@@H](C)c4ccccc4)nc4ccccc43)n2)cc(OC)c1OC', '> 9.04 µM'),
  ('COc1cc(Nc2ncnc(Nc3cc(-c4ccc(Cl)cc4)n[nH]3)n2)cc(OC)c1OC', '> 9.91 µM'),
  ('COc1cc(Nc2ncnc(-c3ccnc(NCCCO)c3)n2)cc(OC)c1OC', '> 10.9 µM'),
  ('COc1ccc(-c2cn[nH]c2Nc2ncnc(Nc3cc(OC)c(OC)c(OC)c3)n2)cc1OC', '> 9.38 µM'),
  ('COc1cc(Nc2ncnc(-c3ccsc3)n2)cc(OC)c1OC', '> 13.1 µM'),
  ('COc1ccc(Nc2nc3ccccc3n2-c2ncnc(Nc3cc(OC)c(OC)c(OC)c3)n2)cc1OC', '> 8.5 µM');

In the following, a different compound is considered.
Return reported IC50 for target or system AKT (Homo sapiens, UniProt Q9Y243), item COc1cc(Nc2ncnc(-n3c(Nc4cccc(C(=O)O)c4)nc4ccccc43)n2)cc(OC)c1OC . 0.779 to 4.67 µM
